The molecules listed here are annotated with their inhibition.
# TARGET_ENTITY: Ubiquitin carboxyl-terminal hydrolase 17-like protein 5 (Homo sapiens) (UniProt A8MUK1)
# Sequence (A8MUK1 whole entry, looked up): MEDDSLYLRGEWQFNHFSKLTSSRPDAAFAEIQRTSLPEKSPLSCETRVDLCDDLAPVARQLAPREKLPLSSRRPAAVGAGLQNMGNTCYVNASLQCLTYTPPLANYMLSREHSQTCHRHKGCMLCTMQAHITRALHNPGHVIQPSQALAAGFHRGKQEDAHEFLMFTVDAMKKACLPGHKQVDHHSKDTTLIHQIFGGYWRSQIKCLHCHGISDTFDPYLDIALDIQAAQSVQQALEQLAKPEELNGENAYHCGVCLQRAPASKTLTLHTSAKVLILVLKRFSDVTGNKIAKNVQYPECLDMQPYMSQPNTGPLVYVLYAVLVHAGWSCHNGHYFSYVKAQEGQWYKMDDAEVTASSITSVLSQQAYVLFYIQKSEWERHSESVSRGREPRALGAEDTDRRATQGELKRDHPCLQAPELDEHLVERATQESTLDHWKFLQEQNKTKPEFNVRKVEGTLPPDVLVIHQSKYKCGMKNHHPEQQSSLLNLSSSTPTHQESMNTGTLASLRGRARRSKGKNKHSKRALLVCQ
# ASSAY_OVERVIEW: inhibitors of human USP17 deubiquitinase (AID 1645855)
# ASSAY_CONDITIONS: purified USP17, Ub-rhodamine cleavage fluorescence, 3 h; at 50 µM; stronger effect = higher value
Among all 47,000 compounds or so, about 3,100 (6.6%) were called active. This excerpt belongs to a sample that is enriched for actives.
MEASURED_METRIC: inhibition (%)

1) O=C(Nc1cccc2ccccc12)N1CCN(Cc2ccc3c(c2)OCO3)CC1
41
2) CN1CCn2c(-c3cccnc3)cnc2C12CCN(Cc1cccnc1)CC2
-23.9
3) Cc1nn(-c2ccccc2)c2[nH]c(=O)c(C#N)c(-c3ccco3)c12
-26.6
4) COc1ccc(C2C3=C(CC(c4ccc(Cl)cc4)CC3=O)Nc3ccccc3N2C(=O)c2ccc(Cl)c(Cl)c2)cc1 (configuration not stated)
-7.25
5) Cc1nc2c(c(C)c1CCC(=O)Nc1ccccc1F)c(=O)n(C)c(=O)n2C
-0.603
6) COc1ccc(CN(C)c2ccc(S(=O)(=O)Nc3ccccn3)cn2)cc1
6.32
7) Cc1cc(C)c2nc3c(cc2c1)CN(Cc1ccco1)C(=O)O3
51.9
8) O=C(C1CCCN(S(=O)(=O)N2CCOCC2)C1)N1CCN(Cc2ccccc2)CC1 (configuration not stated)
-0.311
9) Cc1ccc(-n2c3c(c(=O)[nH]c2=O)CN(Cc2ccco2)CN3)cc1
-9.75
10) CC(C)(C)c1nn(-c2ccccc2)c2[nH]c(=O)c(CNCCc3ccccc3)cc12
31.9
11) COc1ccc2nc3c(cc2c1)CN(Cc1ccccc1)C(=O)O3
18.5
12) Cc1cccc(C)c1NS(=O)(=O)c1ccc(N2CCCC2=O)cc1
-8.71
13) CC1=C2C[C@@H]3C(CN4CCN(c5ccccn5)CC4)C(=O)O[C@@H]3C[C@@]2(C)CCC1 (some centres not stated)
-3.81
14) CNc1nc2c(c(=O)n1-c1ccccc1OC)CCN(C(=O)N1CCOCC1)C2
-2.32
15) O=c1c2ccccc2ncn1Cc1noc(-c2ccccc2F)n1
-0.0976
16) Cc1cc(=O)n(CC(=O)Nc2ccc(F)cc2C)c(N2CCCC2)n1
16.9
17) CC(NC(=O)c1ccc2ncnc(N3CCOCC3)c2c1)c1ccccc1 (configuration not stated)
9.89
18) Cc1ccc(-c2cc(=O)[nH]c(NCc3ccccc3)n2)cc1
-6.42
19) Cc1cccc(NC(=O)C2CN(S(C)(=O)=O)c3ccccc3O2)c1C (configuration not stated)
-4.9
20) COc1ccc(F)cc1-c1ccccc1CC1CNCCNC1=O (configuration not stated)
-14.6
21) Cc1cccc(-n2cc(-c3ccccc3)c3c(N(C)C)ncnc32)c1
2.77
22) O=C(c1noc2c1CCCC2)N1CCCC(c2ccn[nH]2)C1 (configuration not stated)
0.07
